- STUDY SYSTEM: human CD38 on cells or tissue (human, UniProt P28907 1-300)
- PROTOCOL DETAILS: cell-based or functional assay
MEASUREMENT NAME: ADCC EC50 [nM], RPMI8226 target cells (nM)
Give your result in nM as a bare value.

[
  {
    "BINDER": "MOR03077 human IgG1 (antibody, V domains shown, also called MAb#1) VH: QVQLVQSGAEVKKPGASVKVSCKASGYTFTSYSINWVRQAPGQGLEWMGYIDPNRGNTNYAQKFQGRVTMTRDTSISTAYMELSSLRSEDTAVYYCAREYIYFIHGMLDFWGQGTLVTVSS VL: DIVMTQSPLSLPVTPGEPASISCRSSQSLLFIDGNNYLNWYLQKPGQSPQLLIYLGSNRASGVPDRFSGSGSGTDFTLKISRVEAEDVGVYYCQQYSSKSATFGQGTKVEIKR",
    "ADCC EC50 [nM], RPMI8226 target cells [nM]": 0.08
  }
]

Task item: I have this binder here, MOR03079 human IgG1 (antibody, V domains shown, also called MAb#2) VH: QVQLVESGGGLVQPGGSLRLSCAASGFTFSNYGMHWVRQAPGKGLEWVSNIRSDGSWTYYADSVKGRFTISRDNSKNTLYLQMNSLRAEDTAVYYCARRYWSKSHASVTDYWGQGTLVTVSS VL: DIQMTQSPSSLSASVGDRVTITCRASQDISAFLNWYQQKPGKAPKLLIYKVSNLQSGVPSRFSGSGSGTDFTLTISSLQPEDFATYYCQQAYSGSITFGQGTKVEIKR , and I need its recorded ADCC EC50 [nM], RPMI8226 target cells.
Reply: 0.04

Task item: What value of ADCC EC50 [nM], RPMI8226 target cells has been reported for the following binder? MOR03100 human IgG1 (antibody, V domains shown, also called LAC 3100; MAb#4) VH: QVQLVESGGGLVQPGGSLRLSCAASGFTFSSNGMSWVRQAPGKGLEWVSNISYLSSSTYYADSVKGRFTISRDNSKNTLYLQMNSLRAEDTAVYYCARFYGYFNYADVWGQGTLVTVSS VL: DIELTQPPSVSVAPGQTARISCSGDNIGHYYASWYQQKPGQAPVLVIYRDNDRPSGIPERFSGSNSGNTATLTISGTQAEDEADYYCQSYDYLHDFVFGGGTKLTVLG
Reply: 0.28

Task item: Consider the binder shown here: MOR03080 human IgG1 (antibody, V domains shown, also called MAb#3) VH: QVQLVESGGGLVQPGGSLRLSCAASGFTFSSYGMHWVRQAPGKGLEWVSNIYSDGSNTFYADSVKGRFTISRDNSKNTLYLQMNSLRAEDTAVYYCARNMYRWPFHYFFDYWGQGTLVTVSS VL: DIELTQPPSVSVAPGQTARISCSGDNIGNKYVSWYQQKPGQAPVVVIYGDNNRPSGIPERFSGSNSGNTATLTISGTQAEDEADYYCSSYDSSYFVFGGGTKLTVLG What is its recorded ADCC EC50 [nM], RPMI8226 target cells?
Reply: 0.05
